- Test system: diazepam effect in the pentetrazole test
- EXPERIMENTAL PROTOCOL: Antagonism of diazepam in the pentetrazole test
- Assay type: in vivo
- CONDITION SUMMARY: Mus musculus, po; mice; diazepam 5 mg/kg i.p. one hour before and compound p.o. 15 minutes before pentetrazole 120 mg/kg i.p.; read-out: Antagonism of diazepam ED 50
QUANTITY MEASURED: ED50 (mg/kg)

>>> result_number("C#Cc1ncn2c1CN(C)C(=O)c1cc(F)ccc1-2 [B]")
1.5
>>> result_number("C#Cc1ncn2c1CN(C)C(=O)c1c(Cl)cccc1-2 [A]")
0.24
>>> result_number("C=Cc1ncn2c1CN(C)C(=O)c1c(Cl)cccc1-2 [F]")
1.2
>>> result_number("CC#Cc1ncn2c1CN(C)C(=O)c1c(Cl)cccc1-2 [C]")
0.36

----------
Quick reference for LD50 among some compounds
- EXPERIMENTAL PROTOCOL: Acute toxicity, single oral administration to rats
- CONDITION SUMMARY: rat, in vivo, read-out: Toxicity LD 50
QUANTITY MEASURED: LD50

>>> result("C#Cc1ncn2c1[C@@H]1CCCN1C(=O)c1c(Cl)cccc1-2 [D]")
"> 4000 mg/kg"
>>> result("C#Cc1ncn2c1CN(C)C(=O)c1c(Cl)cccc1-2 [A]")
"312 to 625 mg/kg"
>>> result("CN1Cc2c(C#CC(C)(C)O)ncn2-c2cccc(Br)c2C1=O [E]")
"500 to 1000 mg/kg"
>>> result("C=Cc1ncn2c1CN(C)C(=O)c1c(Cl)cccc1-2 [F]")
"1250 to 2500 mg/kg"
>>> result("C#Cc1ncn2c1CN(C)C(=O)c1cc(F)ccc1-2 [B]")
"312 to 625 mg/kg"
>>> result("CC#Cc1ncn2c1CN(C)C(=O)c1c(Cl)cccc1-2 [C]")
"> 5000 mg/kg"

----------
Below is a list of entries, each paired with its recorded IC50 value.
- TEST TARGET: central benzodiazepine receptors (cerebral cortex)
- EXPERIMENTAL PROTOCOL: Affinity to benzodiazepine receptors (inhibition of tritiated diazepam binding in cerebral cortex)
- CONDITION SUMMARY: inhibition of specific binding of tritiated diazepam, read-out: Affinity to benzodiazepine receptors IC 50
QUANTITY MEASURED: IC50 (nM)

>>> result_number("C#Cc1ncn2c1CN(C)C(=O)c1c(Cl)cccc1-2 [A]")
4.5
>>> result_number("C=Cc1ncn2c1CN(C)C(=O)c1c(Cl)cccc1-2 [F]")
7.6
>>> result_number("C#Cc1ncn2c1CN(C)C(=O)c1cc(F)ccc1-2 [B]")
24
>>> result_number("C#Cc1ncn2c1[C@@H]1CCCN1C(=O)c1c(Cl)cccc1-2 [D]")
2.4
>>> result_number("CN1Cc2c(C#CC(C)(C)O)ncn2-c2cccc(Br)c2C1=O [E]")
2
>>> result_number("CC#Cc1ncn2c1CN(C)C(=O)c1c(Cl)cccc1-2 [C]")
2.3

Numbers sourced from patent US4863920A.
